Values were extracted from paper PMC10436260.

Assay: physchem
Protocol conditions: pH 7.4
Measure: solubility (µM)
Reply numerically in µM, unit not repeated.

>>> result("O=C(Nc1ncc(Cl)s1)c1ccccc1O [compound 4, reference compound]")
48
>>> result("CC(C)(C)[C@H](NC(=O)c1ccccc1O)C(=O)Nc1ncc(Cl)s1")
388
>>> result("O=C(Nc1ncc([N+](=O)[O-])s1)c1ccccc1O [compound 3, Tizoxanide, reference compound]")
33
>>> result("CC(C)(C)[C@H](NC(=O)c1ccccc1O)C(=O)Nc1ncc([N+](=O)[O-])s1")
18

Read the next record carefully.
# input compound: CC(C)[C@H](NC(=O)c1ccccc1O)C(=O)Nc1ncc(Cl)s1 ; wanted: its solubility
82

###

Each entry below carries its reported logP.
Assay: physchem
Type: physicochemical
The response must contain the number and no unit.

Below, each entry is followed by its recorded logP result.
>>> result("CC(C)[C@H](NC(=O)c1ccccc1O)C(=O)Nc1ncc([N+](=O)[O-])s1")
2.9
>>> result("O=C(Nc1ncc([N+](=O)[O-])s1)c1ccccc1O [compound 3, Tizoxanide, reference compound]")
1.8
>>> result("CC(C)(C)[C@H](NC(=O)c1ccccc1O)C(=O)Nc1ncc([N+](=O)[O-])s1")
3.3

Read the next record carefully.
# input molecule: O=C(Nc1ncc(Cl)s1)c1ccccc1O [compound 4, reference compound] ; wanted: its logP
2.9

###

Assay: clearance in rat hepatocytes (RH)
Assay type: in vitro ADME
Each entry below carries its reported hepatocyte CLint.
Reply numerically in µL/min/1e6 cells, unit not repeated.

Below, each entry is followed by its recorded hepatocyte CLint result.
>>> result("CC(C)(C)[C@H](NC(=O)c1ccccc1O)C(=O)Nc1ncc([N+](=O)[O-])s1")
31.5
>>> result("CC(C)[C@H](NC(=O)c1ccccc1O)C(=O)Nc1ncc([N+](=O)[O-])s1")
67.7
>>> result("CC(C)(C)[C@H](NC(=O)c1ccccc1O)C(=O)Nc1ncc(Cl)s1")
75.4
>>> result("CC(C)[C@H](NC(=O)c1ccccc1O)C(=O)Nc1ncc(Cl)s1")
234

# input compound: O=C(Nc1ncc([N+](=O)[O-])s1)c1ccccc1O [compound 3, Tizoxanide, reference compound] ; wanted: its hepatocyte CLint
244

###

Assay: in vitro
Assay type: in vitro ADME
Protocol conditions: human, microsomes
Each entry below carries its reported microsomal CLint.
Reply numerically in µL/min/mg, unit not repeated.

Below, each entry is followed by its recorded microsomal CLint result.
>>> result("O=C(Nc1ncc(Cl)s1)c1ccccc1O [compound 4, reference compound]")
37.5
>>> result("O=C(Nc1ncc([N+](=O)[O-])s1)c1ccccc1O [compound 3, Tizoxanide, reference compound]")
50.2
>>> result("CC(C)(C)[C@H](NC(=O)c1ccccc1O)C(=O)Nc1ncc([N+](=O)[O-])s1 [compound 8]")
36.5

# input compound: CC(C)(C)[C@H](NC(=O)c1ccccc1O)C(=O)Nc1ncc(Cl)s1 [compound 20] ; wanted: its microsomal CLint
42.4

# input compound: CC(C)[C@H](NC(=O)c1ccccc1O)C(=O)Nc1ncc([N+](=O)[O-])s1 [compound 21] ; wanted: its microsomal CLint
55.9

# input compound: CC(C)[C@H](NC(=O)c1ccccc1O)C(=O)Nc1ncc(Cl)s1 [compound 22] ; wanted: its microsomal CLint
42.7

###

Each entry below carries its reported IC90.
Tested on: influenza A virus (IAV) strain A/PuertoRico/8/1934(H1N1) (PR8)
Assay: microbe, parasite or virus in culture
Type: cell-based
Protocol conditions: Influenza A virus, MDCK, 24 h; read-out: IC90 (90% inhibitory concentration)
Reply numerically in µM, unit not repeated.

>>> result("CC(C)(C)[C@H](NC(=O)c1ccccc1O)C(=O)Nc1ncc([N+](=O)[O-])s1")
79

Read the next record carefully.
Provide the documented IC90 with influenza A virus (IAV) strain A/PuertoRico/8/1934(H1N1) (PR8) as the system for O=C(Nc1ncc([N+](=O)[O-])s1)c1ccccc1O [compound 3, Tizoxanide, reference compound]
26.4
